Where these numbers come from: paper PMC9264115

Test system: K1 culture-adapted P. falciparum strain
Experiment: Antiplasmodial evaluation, SYBR Green I fluorescence-based drug susceptibility test
Assay type: cell-based
Details: Plasmodium falciparum; multi-resistant K1 strain of P. falciparum, 72 h incubation, three independent experiments; read-out: EC50 PfK1
Observable: pEC50
# pEC50 is unitless: minus log10 of the molar concentration; print number only

# example entries with known answers
>  <Structure>
CC(C)(C)Nc1nc2cc(N3CCCCC3)sc2c(=O)[nH]1

>  <Observable>
pEC50

>  <Reading>
6.11

$$$$
>  <Structure>
CN1CCN(c2ccc(-c3cc4nc(NC(C)(C)C)[nH]c(=O)c4s3)cc2)CC1

>  <Observable>
pEC50

>  <Reading>
5.39

$$$$
>  <Structure>
CC(C)Nc1nc2cc(C#Cc3ccccc3)sc2c(=O)[nH]1

>  <Observable>
pEC50

>  <Reading>
5.55

$$$$

IN: Form field: reported pEC50 of `CC(C)(C)Nc1nc2cc(-c3ccc(N4CCOCC4)cc3)sc2c(=O)[nH]1`
OUT: 5.62
